Test system: G361 melanoma cells
Assay: G361 melanoma cell proliferation
Assay type: cell-based
Details: Homo sapiens, G-361, read-out: IC50, inhibition of G361 cell proliferation
resultType: IC50 (µM)
Numbers only; they are read as µM.

Entry under review: C=CCc1ccc(O)c(-c2cc(CC=C)ccc2O)c1 [MGN, magnolol] . Reported IC50? 38
